biological target: Ubiquitin carboxyl-terminal hydrolase 1 (Homo sapiens) (UniProt O94782); experiment: Inhibitors of USP1/UAF1: Pilot qHTS (AID 504865); details: purified USP1/UAF1, Ub-rhodamine cleavage fluorescence; series mostly up to 114 µM; note: nearly all actives have a fitted effect of over 35% in size
Sequence (O94782 whole entry, looked up): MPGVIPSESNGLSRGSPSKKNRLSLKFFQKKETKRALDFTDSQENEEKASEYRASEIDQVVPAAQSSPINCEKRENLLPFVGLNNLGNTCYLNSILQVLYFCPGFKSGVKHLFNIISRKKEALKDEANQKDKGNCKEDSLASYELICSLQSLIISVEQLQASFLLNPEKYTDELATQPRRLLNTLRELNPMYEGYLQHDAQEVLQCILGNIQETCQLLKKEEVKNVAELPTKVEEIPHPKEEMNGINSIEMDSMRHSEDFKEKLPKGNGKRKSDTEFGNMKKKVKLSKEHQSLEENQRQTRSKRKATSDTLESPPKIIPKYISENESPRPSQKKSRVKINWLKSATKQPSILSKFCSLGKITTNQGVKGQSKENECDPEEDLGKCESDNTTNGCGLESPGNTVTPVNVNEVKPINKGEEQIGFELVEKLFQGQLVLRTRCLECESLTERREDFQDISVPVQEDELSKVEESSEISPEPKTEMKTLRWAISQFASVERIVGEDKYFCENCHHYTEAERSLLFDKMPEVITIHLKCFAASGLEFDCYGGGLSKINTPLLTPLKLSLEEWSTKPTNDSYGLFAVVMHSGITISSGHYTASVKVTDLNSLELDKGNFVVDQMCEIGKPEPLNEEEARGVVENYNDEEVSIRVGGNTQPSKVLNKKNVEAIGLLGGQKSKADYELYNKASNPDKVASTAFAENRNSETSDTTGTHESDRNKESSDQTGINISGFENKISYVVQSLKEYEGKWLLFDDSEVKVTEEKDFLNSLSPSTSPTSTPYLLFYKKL
Inconclusive results are not listed. Calls of active or inactive are those of the source. Calls come from the whole dose curve; as a rule, active = well fitted inhibition curve with a large enough effect; inconclusive = small, poorly fitted or top-dose-only effect; inactive = flat fitted curve, though single readings scatter.
Hi! Could you answer with just one of these? active, inactive

Example results:
• COc1cccc2c1C(=O)c1c(O)c3c(c(O)c1C2=O)C[C@@](O)(C(=O)CO)C[C@@H]3OC1CC(N)C(O)C(C)O1 (stereo not given in full) = active
• C[C@H]1OC(OC2C(O)[C@@H](O)C(OC3C(O)[C@@H](O)C(O)O[C@@H]3CO)O[C@@H]2CO)[C@H](O)C(O)C1N[C@H]1C=C(CO)[C@@H](O)[C@H](O)C1O (stereo not given in full) = inactive
• C/C1=C2/[N-]C(C(CC(N)=O)[C@@]2(C)CCC(=O)NCC(C)OP(=O)([O-])O[C@H]2[C@@H](O)[C@@H](n3cnc4cc(C)c(C)cc43)O[C@@H]2CO)[C@]2(C)N=C(/C(C)=C3N=C(/C=C4N=C1C(CCC(N)=O)C\4(C)C)[C@@H](CCC(N)=O)[C@]\3(C)CC(N)=O)[C@@H](CCC(N)=O)[C@]2(C)CC(N)=O.CC(=O)O.[Co] (stereo not given in full) = active
• NCCCCC(N)C(=O)O (stereo not given) = inactive

Which result was noted for this molecule in the test: CNC1CCc2cc(OC)c(OC)c(OC)c2-c2ccc(OC)c(=O)cc21 (stereo not given)
inactive

---

biological target: Luciferin 4-monooxygenase (Photinus pyralis) (UniProt P08659); test: Biochemical firefly luciferase enzyme assay for NPC (AID 624030); note: nearly all actives have a fitted effect of over 70% in size; note: potency is the fitted concentration of half-maximal effect; details: purified P. pyralis luciferase, luminescence, 5 min; series mostly up to 58.6 µM
Sequence (P08659 whole entry, looked up): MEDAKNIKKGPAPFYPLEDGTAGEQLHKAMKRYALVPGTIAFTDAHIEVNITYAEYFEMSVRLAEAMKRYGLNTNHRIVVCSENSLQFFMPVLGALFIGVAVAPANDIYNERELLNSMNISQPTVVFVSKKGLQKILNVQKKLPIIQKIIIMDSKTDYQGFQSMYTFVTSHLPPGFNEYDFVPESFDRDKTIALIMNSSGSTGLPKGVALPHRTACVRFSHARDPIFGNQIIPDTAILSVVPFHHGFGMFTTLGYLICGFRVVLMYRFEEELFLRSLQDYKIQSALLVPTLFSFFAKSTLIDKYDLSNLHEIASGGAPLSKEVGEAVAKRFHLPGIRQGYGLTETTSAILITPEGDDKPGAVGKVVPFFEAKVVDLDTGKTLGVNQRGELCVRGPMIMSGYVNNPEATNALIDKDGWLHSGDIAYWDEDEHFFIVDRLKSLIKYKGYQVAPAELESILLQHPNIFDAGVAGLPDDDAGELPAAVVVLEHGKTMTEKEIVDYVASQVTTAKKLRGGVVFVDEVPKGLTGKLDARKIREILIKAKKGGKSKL
Records with an inconclusive call do not appear. Activity calls are given as the source filed them. Calls follow the shape of the dose curve; as a rule, active = well fitted inhibition curve with a large enough effect; inconclusive = small, poorly fitted or top-dose-only effect; inactive = flat fitted curve, though single readings scatter.
MEASURED PARAMETER: Potency

// worked examples, Potency included
• C#C[C@]1(O)CC[C@H]2[C@H]3[C@H](CC[C@@]21C)C1=C(CC(=O)CC1)C[C@@H]3C = inactive
• CC1(C)SC2C(NC(=O)C(C(=O)O)c3ccccc3)C(=O)N2C1C(=O)O (stereo not given) = inactive
• Nc1nc2[nH]cc(CCc3ccc(C(=O)NC(CCC(=O)O)C(=O)O)cc3)c2c(=O)[nH]1 (stereo not given) = inactive
• CC(C)C[C@@H](NC(=O)[C@@H](Cc1ccccc1)NC(=O)c1cnccn1)B(O)O = inactive

For "Cc1ccc(Nc2ncccc2C(=O)O)cc1C" , write its Potency.
11.4 µM (active)

---

experiment: NFAT Signaling Pathway (AID 444); conditions: Jurkat NFAT-bla M1, carbachol, beta-lactamase ratio, 5 h; at 17.2 µM (top of the series) unless noted;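 note: carbachol stimulus at about its EC50 of 1 µM final; % is set by controls: 0 for no effect and ±100 for the full control effect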
Inconclusive results are not listed.
Catalogue of activity change, negative = inhibition values
Numeric answer only, unit % assumed.

// worked examples, activity change, negative = inhibition included
* CCOC(=O)c1c(N)sc(=S)c2c1CCC2 | -6.19
* O=C1CCC(=O)N1c1nc2n(n1)C(c1ccccc1)C=C(c1ccc(Br)cc1)N2 (stereo not drawn) | 3.81
* CC(=O)[C@H]1[C@@H]2C(=O)N(c3cccc(Cl)c3)C(=O)[C@@H]2[C@H]2c3ccccc3C=CN21 | -7.09

For "CCc1nnc(NC(=O)c2c(O)c3c([nH]c2=O)CCCC3)s1" , write its activity change, negative = inhibition.
15.9

For Cc1ccc(S(=O)(=O)NC(=O)Nc2ncc3c(n2)CC(c2ccco2)CC3=O)cc1 (stereo not drawn) , write its activity change, negative = inhibition.
7.22

For "CCOC(=O)CSc1nc(N)c2c3c(sc2n1)CCCC3" , write its activity change, negative = inhibition.
-14.4

For CCOc1cccc(C2C(C#N)=C(N)Oc3cc(C)oc(=O)c32)c1OCC (stereo not drawn) , write its activity change, negative = inhibition.
9.73

For CCN(CC)CCN1C(=O)C(=O)/C(=C(/O)c2c(C)[nH]c(C(=O)OC)c2C)C1c1ccco1 (stereo not drawn) , write its activity change, negative = inhibition.
-2.14

For CC1(C(=O)CSc2n[nH]c(-c3ccccc3Cl)n2)CCC(=O)O1 (stereo not drawn) , write its activity change, negative = inhibition.
4.32

For "NC(=O)CSc1nnc2n(-c3ccccc3)c(=O)c3c4c(sc3n12)CCCCC4" , write its activity change, negative = inhibition.
-30

For Cc1c(C2Nc3ccccc3NC3=C2C(=O)CC(C)(C)C3)cnn1C (stereo not drawn) , write its activity change, negative = inhibition.
-5.95

For "CCCc1nc2n[nH]c(N)c2c2c1COC(C)(C)C2" , write its activity change, negative = inhibition.
-0.018

For "CCOC(=O)c1[nH]c2ccc(OC)cc2c1C" , write its activity change, negative = inhibition.
-6.84

For "Cc1cc(N2CCN(C3CCCC3)CC2)n2c(nc3ccccc32)c1C#N" , write its activity change, negative = inhibition.
19.5

For "Cc1cc(C(=O)O)c(CSc2ncn[nH]2)o1" , write its activity change, negative = inhibition.
19.7

For "C/C(=N\O)C(=O)NCCCNCCCN(C)C" , write its activity change, negative = inhibition.
-0.0528

For "Cc1cc(=O)n2[nH]cnc2n1" , write its activity change, negative = inhibition.
10.4

For "Cc1nn(CC(=O)N2CCOCC2)c(=O)c2ccccc12" , write its activity change, negative = inhibition.
8.23

For "COc1ccc(C2=Nn3c(nnc3-c3ccccn3)SC2)cc1" , write its activity change, negative = inhibition.
2.81

For "CCOC(=O)N1CCN(/C=C(\C#N)c2nc3ccccc3s2)CC1" , write its activity change, negative = inhibition.
13.1
